Provide the recorded mortality at 0.5 µg/female for the entries that follow.
- Test system: houseflies (Musca domestica)
- experimental_details: Mortality test with houseflies by topical application method
- condition_notes: 24 h

Q: Fill blank: measured mortality at 0.5 µg/female of the compound CC(C)C(C(=O)OC(C#N)c1cccc(Oc2ccccc2)c1)c1ccc(Cl)cc1 (centres unmarked) [Compound (E), Fenvalerate] is ____.
Ans: 100%

Q: Fill blank: measured mortality at 0.5 µg/female of the compound CC(C)=CC1C(C(=O)OCc2cccc(Oc3ccccc3)c2)C1(C)C (centres unmarked) is ____.
Ans: 97%

Q: Fill blank: measured mortality at 0.5 µg/female of the compound Cc1cccc(Oc2cccc(COC(=O)C3C(C=C(Cl)Cl)C3(C)C)c2)c1 (centres unmarked) is ____.
Ans: 50%

Q: Fill blank: measured mortality at 0.5 µg/female of the compound CC1(C)C(C=C(Cl)Cl)C1C(=O)OC(C#N)c1cccc(Oc2ccc(Br)cc2)c1 (centres unmarked) is ____.
Ans: 100%

Q: Fill blank: measured mortality at 0.5 µg/female of the compound Cc1ccc(Oc2cccc(C(C#N)OC(=O)C3C(C=C(Cl)Cl)C3(C)C)c2)cc1C (centres unmarked) is ____.
Ans: 40%

Q: Fill blank: measured mortality at 0.5 µg/female of the compound CC1(C)C(C=C(Cl)Cl)C1C(=O)OCc1cccc(Oc2cccc(Cl)c2)c1 (centres unmarked) is ____.
Ans: 60%

Q: Fill blank: measured mortality at 0.5 µg/female of the compound C#CC(OC(=O)C1C(C=C(Cl)Cl)C1(C)C)c1cccc(Oc2ccc(Cl)cc2)c1 (stereo not drawn) [Compound (2) cis-/trans- = 50:50] is ____.
Ans: 100%

Q: Fill blank: measured mortality at 0.5 µg/female of the compound CC1(C)C(C=C(Br)Br)C1C(=O)OC(C#N)c1cccc(Oc2ccccc2)c1 (centres unmarked) is ____.
Ans: 100%

* * *

Provide the recorded mortality at 10 ng for the entries that follow.
- System: green rice leafhoppers (Nephotettix cincticeps Uhler)
- experimental_details: Mortality test with green rice leafhoppers by topical application method
- condition_notes: Nephotettix cincticeps, in Oryza sativa, 24 h, read-out: Pesticidal effect, green rice leafhopper
# unit: % | format: bare number

Q: Recall the recorded mortality at 10 ng for C#CC(OC(=O)C1C(C=C(Cl)Cl)C1(C)C)c1cccc(Oc2ccc(Cl)cc2)c1 (stereo not drawn) [Compound (2) cis-/trans- = 50:50] with green rice leafhoppers (Nephotettix cincticeps Uhler) and state it.
Ans: 100

Q: Recall the recorded mortality at 10 ng for CC1(C)C(C=C(Br)Br)C1C(=O)OC(C#N)c1cccc(Oc2ccccc2)c1 (stereo not drawn) with green rice leafhoppers (Nephotettix cincticeps Uhler) and state it.
Ans: 100

Q: Recall the recorded mortality at 10 ng for CC(C)C(C(=O)OC(C#N)c1cccc(Oc2ccccc2)c1)c1ccc(Cl)cc1 (stereo not drawn) [Compound (E), Fenvalerate] with green rice leafhoppers (Nephotettix cincticeps Uhler) and state it.
Ans: 100

* * *

- experimental_details: Fish toxicity test with carp
- Assay type: in vivo, Cyprinus carpio L
- condition_notes: carp, water, 48 hrs., 21±1° C.; read-out: TLm, Carp (48 hrs.)
// map LC50 at 48 h onto a label; ranges interval 1: < 0.01 µg/mL; interval 2: ≥ 0.01 µg/mL and < 0.09 µg/mL; interval 3: ≥ 0.09 µg/mL

Q: In plain terms, what class is CC1(C)C(C=C(Cl)Cl)C1C(=O)OCc1cccc(Oc2ccc(Cl)cc2)c1 (stereo not drawn) [Compound (1) cis-/trans- = 20:80] ?
Ans: interval 3

Q: In plain terms, what class is C#CC(OC(=O)[C@@H]1[C@H](C=C(Cl)Cl)C1(C)C)c1cccc(Oc2ccc(Cl)cc2)c1 (relative stereo) [Compound (2) cis-] ?
Ans: interval 3

Q: In plain terms, what class is C#CC(OC(=O)[C@@H]1[C@@H](C=C(Cl)Cl)C1(C)C)c1cccc(Oc2ccc(Cl)cc2)c1 (relative stereo) [Compound (2) trans-] ?
Ans: interval 3

Q: In plain terms, what class is CC1(C)C(C=C(Br)Br)C1C(=O)OC(C#N)c1cccc(Oc2ccccc2)c1 (stereo not shown) ?
Ans: interval 1

Q: In plain terms, what class is CC(C)C(C(=O)OC(C#N)c1cccc(Oc2ccc(Cl)cc2)c1)c1ccc(Cl)cc1 (stereo not shown) ?
Ans: interval 2

Q: In plain terms, what class is CC1(C)[C@@H](C=C(Cl)Cl)[C@@H]1C(=O)OCc1cccc(Oc2ccc(Cl)cc2)c1 (relative stereo) [Compound (1) trans-] ?
Ans: interval 3

Q: In plain terms, what class is CC1(C)C(C=C(Cl)Cl)C1C(=O)OC(C#N)c1cccc(Oc2ccc(Cl)cc2)c1 (stereo not drawn) [Compound (G) cis-/trans- = 50:50] ?
Ans: interval 2

Q: In plain terms, what class is CC1(C)C(C=C(Cl)Cl)C1C(=O)OC(C#N)c1cccc(Oc2ccccc2)c1 (stereo not shown) ?
Ans: interval 1

Q: In plain terms, what class is CC1(C)C(C=C(Cl)Cl)C1C(=O)OCc1cccc(Oc2ccccc2)c1 (stereo not shown) ?
Ans: interval 2

Q: In plain terms, what class is CC1(C)[C@H](C(=O)OC(C#N)c2cccc(Oc3ccc(Cl)cc3)c2)[C@@H]1C=C(Cl)Cl (relative stereo) [Compound (G) cis-] ?
Ans: interval 2

Q: In plain terms, what class is CC1(C)C(C=C(Cl)Cl)C1C(=O)OC(C#N)c1cccc(Oc2ccc(Br)cc2)c1 (stereo not shown) ?
Ans: interval 2

Q: In plain terms, what class is CC(C)C(C(=O)OC(C#N)c1cccc(Oc2ccccc2)c1)c1ccc(Cl)cc1 (stereo not shown) [Compound (E), Fenvalerate] ?
Ans: interval 1
